Hey, just so you know, these numbers are from PubChem BioAssay (NCI).

# Tested on: CAKI-1 renal
# method: NCI-60 one-dose screen, 48 h
# condition.description: 10 µM unless noted
About 83,000 compounds went through this panel and 20% of them were active in at least one assay; those are over-represented in the sample as a whole. Activity calls are given as the source filed them. How the source made its calls: active means growth percent below 10; inactive means the rest.
Bench note: report the call from active, inactive

INPUT: I'd appreciate the recorded outcome for O=C1OC(c2ccccc2)C(O)=C1c1ccccc1 (stereo unspecified) from this test.
OUTPUT: inactive

INPUT: I'd appreciate the recorded outcome for COc1cc2nc(N3CCCC3)nc(NCc3ccccc3)c2cc1OC from this test.
OUTPUT: inactive

INPUT: I'd appreciate the recorded outcome for O=C(/C=C/C=C/c1ccc2c(c1)OCO2)N/N=C\c1ccc(O)cc1O from this test.
OUTPUT: active

INPUT: I'd appreciate the recorded outcome for CCN(CC)CCCCNc1c2ccc(Cl)cc2nc2ccc(OC)cc12 from this test.
OUTPUT: active

INPUT: I'd appreciate the recorded outcome for O=[N+]([O-])c1ccc(Nc2nc(NCCN3CCOCC3)ncc2[N+](=O)[O-])cc1 from this test.
OUTPUT: inactive

INPUT: I'd appreciate the recorded outcome for Cc1ccccc1COc1ccc(-c2onc(C)c2-c2ccc(Cl)cc2)cc1 from this test.
OUTPUT: inactive

INPUT: I'd appreciate the recorded outcome for O=C(Cc1ccccc1Nc1c(Cl)cccc1Cl)NN1C(=O)/C(=C/c2ccc(Br)cc2)SC1=S from this test.
OUTPUT: inactive

INPUT: I'd appreciate the recorded outcome for CC(=O)O[C@H]1CC[C@]2(C)[C@H]3CC=C4[C@@H]5CC(C)(C)CC[C@]5(C(=O)NCCNCCNCCN)CC[C@@]4(C)[C@]3(C)CC[C@H]2C1(C)C from this test.
OUTPUT: inactive

INPUT: I'd appreciate the recorded outcome for CC(=O)Nc1ccc(S(=O)(=O)Nc2cccc(-c3nc(-c4ccc(NC(=O)c5cccnc5)cc4Cl)no3)c2)cc1 from this test.
OUTPUT: inactive

INPUT: I'd appreciate the recorded outcome for Cc1cc(C)nc(SC2=C(Nc3cccc(Cl)c3C)C(=O)N(Cc3ccccc3)C2=O)n1 from this test.
OUTPUT: inactive

INPUT: I'd appreciate the recorded outcome for O=C1c2cc3c(cc2-c2c1c1ccc(F)cc1c(=O)n2C[C@H](O)[C@H](O)[C@H](O)CO)OCO3 from this test.
OUTPUT: active

INPUT: I'd appreciate the recorded outcome for O=c1cc(/C(=C2/C=CC=N2)c2ccc[nH]2)c2cc(Cl)ccc2o1 from this test.
OUTPUT: inactive

INPUT: I'd appreciate the recorded outcome for COc1ccc(-c2nc3ccc(-c4nc5ccc(N6CCN(c7ccccc7)CC6)cc5[nH]4)cc3[nH]2)cc1OC from this test.
OUTPUT: inactive

INPUT: I'd appreciate the recorded outcome for O=C(O)c1ccc(N=CC(=O)c2ccc(-c3ccccc3)cc2)cc1 from this test.
OUTPUT: inactive

INPUT: I'd appreciate the recorded outcome for COC(=O)c1cccc(NC(=O)c2ccc(-c3cccc(N)c3)o2)c1 from this test.
OUTPUT: inactive

INPUT: I'd appreciate the recorded outcome for CC(C)C[C@@H](NC(=O)[C@@H](Cc1ccccc1)NC(=O)c1cnccn1)B1Oc2ccc(C[C@H](NC(=O)[C@H](Cc3ccc4c(c3)OB([C@@H](CC(C)C)NC(=O)[C@@H](Cc3ccccc3)NC(=O)c3cnccn3)O4)NC(=O)[C@@H](N)CC3CCC4OB([C@@H](CC(C)C)NC(=O)[C@@H](CC5CCCCC5)NC(=O)C5CNCCN5)OC4C3)C(=O)NCCCC[C@@H]3NC(=O)[C@@H](Cc4ccccc4)NC(=O)[C@H](CC(=O)O)NC(=O)CNC(=O)[C@H](CCCNC(=N)N)NC3=O)cc2O1 (stereo partly specified) from this test.
OUTPUT: active

---

Answer each item with its documented growth.
# Test system: MDA-MB-231 breast
# method: NCI-60 one-dose screen, 48 h (100 = growth as untreated, 0 = no growth, -100 = all killed)
# condition.description: 10 µM unless noted
This is part of a sample that, as a whole, favours compounds with a hit. Of some 83,000 tested, about 20% had one in any assay.
# number only, unit % dropped from output

INPUT: Please report growth for the following molecule: COc1ccc2c(c1)O/C(=C\c1cccc(OCC(=O)Nc3nc4c(s3)CCCC4)c1)C2=O
OUTPUT: 65.9

INPUT: Please report growth for the following molecule: Cn1ccnc1C(=O)/C=C/c1ccccc1
OUTPUT: 34.7

INPUT: Please report growth for the following molecule: COC(=O)c1cccc(NC(=O)c2ccc(-c3cccc(N)c3)o2)c1
OUTPUT: 99.4

INPUT: Please report growth for the following molecule: Cn1cccc1-c1nc2c3c(ccc2[nH]1)C(=O)c1ccccc1C3=O
OUTPUT: 88.6

INPUT: Please report growth for the following molecule: CCCn1c(=O)[nH]c(N)c([C@H]2c3ccccc3Oc3[nH]c(=O)n(CCC)c(=O)c32)c1=O
OUTPUT: 81.8

---

# System: LOX IMVI melanoma
# method: NCI-60 one-dose screen, 48 h
# condition.description: 10 µM unless noted
Compounds without any hit were thinned out: in the full panel of roughly 83,000, 20% have a hit. Active and inactive are the calls of the source. How the source made its calls: active means growth percent below 10; inactive means the rest.
Bench note: report the call from 1.0 = active, 0.0 = inactive

INPUT: I'd appreciate the recorded outcome for CCCOc1cc2ccccc2cc1C(=O)Nc1nc(NC)c2c(ccc3nccc32)[nH]1 from this test.
OUTPUT: 1.0

INPUT: I'd appreciate the recorded outcome for COc1cc(C=Nc2oc(-c3ccccc3)c(-c3ccccc3)c2C#N)cc(CN2CCCCC2)c1O from this test.
OUTPUT: 0.0

INPUT: I'd appreciate the recorded outcome for CC(C)CC1C(=O)N2CCC[C@H]2C2(O)O[C@](NC(=O)C3C=C4c5cccc6[nH]c(Br)c(c56)C[C@H]4N(C)C3)(C(C)C)C(=O)N12 (some centres undefined) from this test.
OUTPUT: 0.0

INPUT: I'd appreciate the recorded outcome for Cc1cc(C)nc(SC2=C(Nc3cccc(Cl)c3C)C(=O)N(Cc3ccccc3)C2=O)n1 from this test.
OUTPUT: 0.0

INPUT: I'd appreciate the recorded outcome for COc1cc(-c2nn(-c3ccc(Br)cc3)cc2C(=O)O)ccc1O from this test.
OUTPUT: 0.0

INPUT: I'd appreciate the recorded outcome for CCn1c(Cc2ccccc2Nc2c(Cl)cccc2Cl)nnc1SCC(=O)NN1C(=O)/C(=C/c2cc(OC)c(O)c(OC)c2)SC1=S from this test.
OUTPUT: 0.0

INPUT: I'd appreciate the recorded outcome for COc1cc(-c2nn(-c3ccc(C(=O)O)cc3)cc2C(=O)O)ccc1O from this test.
OUTPUT: 0.0

INPUT: I'd appreciate the recorded outcome for COc1ccc(/C=C/c2nc3ccccc3nc2/C=C/c2ccc(OC)cc2)cc1 from this test.
OUTPUT: 0.0

INPUT: I'd appreciate the recorded outcome for Cc1ccc(NC(=O)C2CCC(CN3CCN(C)CC3)CC2)cc1Nc1nccc(-c2cccnc2)n1 (centres undefined) from this test.
OUTPUT: 0.0

---

# System: M14 melanoma
# method: NCI-60 one-dose screen, 48 h
# condition.description: 10 µM unless noted
This is part of a sample that, as a whole, favours compounds with a hit. Of some 83,000 tested, about 20% had one in any assay. Calls of active or inactive are those of the source. How the source made its calls: active means growth percent below 10; inactive means the rest.
Bench note: report the call from active, inactive

INPUT: I'd appreciate the recorded outcome for COc1ccc2cc(-c3nn(-c4ccc(C(=O)O)cc4)cc3CO)ccc2c1 from this test.
OUTPUT: inactive

INPUT: I'd appreciate the recorded outcome for CC1=C[C@H]2c3c(c(O)c(O)c4oc5cc(O)ccc5c(=O)c34)[C@H](c3cc(O)c(O)c4oc5cc(O)ccc5c(=O)c34)[C@H]2C(C)(C)C1 from this test.
OUTPUT: inactive

INPUT: I'd appreciate the recorded outcome for CCCc1cc(=O)n2c(C(=O)Nc3ccc(F)cc3)c(C(=O)Nc3ccc(F)cc3)sc2n1 from this test.
OUTPUT: inactive

INPUT: I'd appreciate the recorded outcome for CCC#CC[C@H](O)C/C=C1/C(=O)C=C[C@@H]1C/C=C\CCCC(=O)OC from this test.
OUTPUT: active

INPUT: I'd appreciate the recorded outcome for CCOC(=O)c1sc(Nc2ccc(Cl)cc2)nc1C from this test.
OUTPUT: inactive

INPUT: I'd appreciate the recorded outcome for CC(C)c1c(C(=O)c2ccccc2)c(-c2ccccc2)c(-c2ccc(F)cc2)n1CC[C@@H](O)C[C@@H](O)CC(=O)O from this test.
OUTPUT: inactive

INPUT: I'd appreciate the recorded outcome for Cn1ccnc1C(=O)/C=C/c1ccc(CC(=O)Nc2ccccc2)cc1 from this test.
OUTPUT: inactive

INPUT: I'd appreciate the recorded outcome for O=C(COc1ccc(/C=C2\COc3ccccc3C2=O)cc1)Nc1nccs1 from this test.
OUTPUT: inactive

INPUT: I'd appreciate the recorded outcome for O=C(Cc1ccc(/C=C/C(=O)c2ncc[nH]2)cc1)Nc1ccc(F)cc1 from this test.
OUTPUT: inactive
